- system_name: isolated recombinant JAK2 kinase domain (Homo sapiens (Human), UniProt O60674)
- Sequence (O60674 849-1124): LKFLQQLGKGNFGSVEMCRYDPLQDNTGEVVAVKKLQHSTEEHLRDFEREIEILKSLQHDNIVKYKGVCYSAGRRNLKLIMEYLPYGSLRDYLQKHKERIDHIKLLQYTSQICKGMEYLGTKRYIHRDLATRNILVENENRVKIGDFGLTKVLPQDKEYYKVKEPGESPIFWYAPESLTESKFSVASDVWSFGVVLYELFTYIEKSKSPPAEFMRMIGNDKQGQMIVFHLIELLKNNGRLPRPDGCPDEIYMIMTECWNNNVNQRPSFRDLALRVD
- assay_explanation: JAK2 enzyme assay (Caliper LabChip, peptide phosphorylation)
- recorded_conditions: 25 μM ATP
readout_kind: Ki (pM)

Lab book: Ki of O=C(Nc1cn(CC(=O)N2CCN3CCCCC3C2)nc1-c1cc(Cl)ccc1OC(F)F)c1cnn2cccnc12 (stereo not drawn) noted as 1250

[I] CN(C(=O)Cn1cc(NC(=O)c2cnn3cccnc23)c(-c2cc(Cl)ccc2OC(F)F)n1)C1(CO)CC1
[II] COC(=O)CN1CCN(C(=O)Cn2cc(NC(=O)c3cnn4cccnc34)c(-c3cc(Cl)ccc3OC(F)F)n2)CC1
Exercise: For the pair I and II , which member has the lower Ki number? Response format: the label of the selected entry.
Key: I

[P] CN1CC[C@@H]2CN(C(=O)Cn3cc(NC(=O)c4cnn5cccnc45)c(-c4cc(Cl)ccc4OC(F)F)n3)C[C@@H]2C1
[Q] COC(=O)C1CCN(CCN2CCN(C(=O)Cn3cc(NC(=O)c4cnn5cccnc45)c(-c4cc(Cl)ccc4OC(F)F)n3)CC2)CC1
Exercise: Ki comparison. Which is larger, P or Q ? # respond with the chosen item's label
Key: Q
